TEST: yeast display, Sf9 membrane polyspecificity reagent, FACS + sequencing; frameworks hold sequencing errors
PROPERTY LABEL: polyreactivity (PSR sort gate)

INPUT SEQUENCE	READING
QVQLVESGAGLVQAGGSLRLSCAASGSTFSRYAMGWYRQAPGKERELVAAISSRGGSTYYADSVKGRFTISRDNAKNTVYLQMNSLKPEDTAVYYCNALTSYQNHVYPYDYWGQGTQVTVSS	high polyreactivity
QVQLVESWGGLVQAGGSLRLSCAASGYTFSYYAMGWYRPAPWKERELVAAITSTGSTYYADSVKVRFTISRDNAKNTVYLQMNSLKPEDTAVYYCNVDDATVGPVDYWGQGTQVTVSS	low polyreactivity
QLQLEESGGGLVQAGGSLRISCDASGTIFGNYAMGWYRQAPGKERELVAAITGSGGRTYYADSVKGRFTISRDNAKNTVYLQMNSLKPEDTAVYYCAARSYGRWYYTLYNYWGQGTQVTVSS	high polyreactivity
QVQLVESGGGLVQAGGSLRLSCAASGSIFMRYSMGWYRQAPGKDRELVAAITRSGGSTYYADSVKGRFTISRDNAKNTVYLQMNSLKPEDTAVYFCAAYTFVTVGYDYWGQGTQVTVSS	high polyreactivity
QVQLVESGGGLVQAGGSLRLSCADSGRTLGYYAKGWYRQAPGKEREVVAAITSGGRTNYADSVKGRFTISRDNAKNTVYLQMNSLKPEDTAVYYCAAARYLSGGYEKYDYWGQGTQVTVSS	low polyreactivity
QVQLVESGGGLVQAGGRLRFSCAASGSTIRRKAMGWSRQAPGKERELVARISYRGGSTYYADSVKGRFTSSRDNAKNTVYLQMNSLKPEATAVYYCAAPVYGVPEYDYWGQGPQVTVSS	low polyreactivity
QVQLVESGGGLVQAGGSLRLSCAASGSIIQGYAMGWYRQEPGKERELVAAITGDGTTNYADSVKGRFTISRDNAKNNVYLQMNSLKPEDTAVYYCSATGLFNKFHGYGYLGQGTQVTVSS	low polyreactivity
QVQIVESGGGLVQAGGSLRLSCAASGSTLYAYAMGWYRQAPGKERELVAAIRTGGSTYYADSVKGRFTISRDNAKNTVYLQMNSLKPEDTAVYYCADDHGYQYGYWGQATQVTVSS	low polyreactivity
QVQLVESGGGLVQAGGSLRLSCAASGFTITQYGMGWYRQAPGKERELVADITYSGGDTYYADSVKGRFTISRDNAKNTVYLQMNSLKPEDTAVYFCAAYSWKYCFVWGYVYWGQGTQVTVSS	high polyreactivity
QVQLVESWGGLVQAGGSLRLSCAATGVTFKFYAMGWYRQAPGKERELVAAISWSGTSTYYADSVKGRFTISRDNAKNTVYLQMNSLKPEDTAVYYCAADKRLRGHGYDYWGQGTQVTVSS	high polyreactivity
QVQLVESGGGLVQAGGSLRLSCAASGSTFDFNAMGWSRQAPGKERELVAAITYSGGSTYYADSVKGRFTISRDNAKNTVYLKMNSLKPEDTAVYYCAAEDVYPGSIDMDYWGQGTQVTVSS	low polyreactivity

###

TEST: yeast display, Sf9 membrane polyspecificity reagent, FACS + sequencing; frameworks hold sequencing errors
PROPERTY LABEL: polyreactivity (PSR sort gate)

INPUT SEQUENCE	PROPERTY LABEL	READING
QGQLVESGGGLVQAGGSLRLSCAASGSTIPVNAMAWYRQAPGKERELVAAITWGDGSTSYADSVKGRFTISRDNAKNTVYLQMNSLKPEDTAVYYCNKDFIYGYDAASYRPEYDYWGQGTQVTVSS	polyreactivity (PSR sort gate)	low polyreactivity
QVQLVESGGGLVQAGGSLRLSGAASGRTFYQYAMGWYRQAPGKARELVAAISWSDGSTSYADSVKGRFTISRDNAKNTVYLQMNSLKPEDTAGYYCAKDWTGTKAIEYDYWGQGTQVTVSS	polyreactivity (PSR sort gate)	low polyreactivity
QVQLVESGGGLVQAGGSLRLSCAASGSTFSVYAMGWYRQAPGKERELVATIRGRGGSTSYADSVKGRFTISRDNAKNTVYLQMNSLKPEDTAVYYCAARVVRDWASKRIILALSNYDYWGQGTQVTVSS	polyreactivity (PSR sort gate)	high polyreactivity
QVQLVESGGGLVQAGGSLRLSCAASGSTFFPYAMGWYRQAPGKERELVAAIRWSGGRTYYADSVKGRFTISRDNAKNTVYLQMNSLKPEDTAVYYCAADKYLDYDYWGQGTQVTVSS	polyreactivity (PSR sort gate)	high polyreactivity
QVQLVESGGGLVQAGGSLRLSCAASGNTFVAYTMGWYRPAPGKERELVAAISWRGGTTYYADSVKGRFTISRDNAKNTVYLQMNSLKPEDTAVYYCAARTSYISHGYVTHGLYYWGQGTQVTVSS	polyreactivity (PSR sort gate)	high polyreactivity
